tested.target: Human CXCR3 (N-delta 4) (Homo sapiens)
Construct: CD8 leader (N); Flag tag; expressed in transfected cells; membrane preparation
Sequence (P49682 5-368 limits assumed): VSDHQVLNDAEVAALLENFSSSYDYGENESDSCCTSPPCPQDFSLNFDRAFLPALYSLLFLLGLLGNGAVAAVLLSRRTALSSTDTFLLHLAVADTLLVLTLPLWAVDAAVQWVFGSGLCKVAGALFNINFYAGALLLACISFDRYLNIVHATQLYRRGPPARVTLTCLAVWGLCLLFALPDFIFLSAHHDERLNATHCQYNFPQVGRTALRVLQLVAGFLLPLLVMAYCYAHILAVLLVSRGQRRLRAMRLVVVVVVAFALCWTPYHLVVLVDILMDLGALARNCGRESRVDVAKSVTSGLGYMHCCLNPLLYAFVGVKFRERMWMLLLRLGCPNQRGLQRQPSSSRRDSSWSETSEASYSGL
protocol.details: Human CXCR3 (N-delta 4) Scintillation Proximity Assay (SPA), [125I] IP-10 binding to Ba/F3-hCXCR3 (N-delta 4) membranes
applied.conditions: [125I] IP-10 displacement, read-out: Ki rating
endpoint: Ki

In [3]: df
Out[3]:
                                  structure  endpoint_value
0  CC[C@H]1CN(c2c(Cl)nc(C(N)=O)c(=O)n2C)CCN1C1CCN(Cc2ccc(Cl)nc2N)CC1    25 to 100 nM
1  CC[C@H]1CN(c2c(Cl)nc(C(=O)OC)c(=O)n2C)CCN1C1CCN(Cc2ccc(Cl)cc2F)CC1    25 to 100 nM
2  CC[C@H]1CN(c2c(Cl)nc(-c3nnc(N)o3)c(=O)n2C)CCN1C1CCN(Cc2cc(F)c(F)cc2Cl)CC1    25 to 100 nM
3  CC[C@H]1CN(c2nc(O)c(-c3nnc(N)o3)nc2Cl)CCN1C1CCN(Cc2ccc(Cl)cc2)CC1        > 100 nM
4  CC[C@H]1CN(c2cnc(C(N)=O)c(=O)n2C)CCN1C1CCN(Cc2ccc(Cl)nc2N)CC1        > 100 nM

Exam item: Which measured Ki value corresponds to `CC[C@H]1CN(c2c(Cl)nc(-c3nnc(N)o3)c(=O)n2C)CCN1C1CCN(Cc2ccc(Cl)cc2)CC1` ?
Marked response: < 25 nM

Exam item: And then `CC[C@H]1CN(c2c(Cl)nc(-c3nnc(N)o3)c(=O)n2C)CCN1C1CCN(Cc2cc(F)c(Cl)cc2F)CC1` , what is it?
Marked response: 25 to 100 nM

Exam item: And then `CC[C@H]1CN(c2c(Cl)nc(-c3nnc(N)o3)c(=O)n2C)CCN1C1CCN(Cc2ccc(Cl)nc2)CC1` , what is it?
Marked response: < 25 nM

Exam item: And then `CCNc1nnc(-c2nc(C)c(N3CCN(C4CCN(C(=O)c5ccc(Cl)nc5N)CC4)[C@@H](CC)C3)n(C)c2=O)o1` , what is it?
Marked response: < 25 nM

Exam item: And then `CC[C@H]1CN(c2c(C)nc(C(N)=O)c(=O)n2C)CCN1C1CCN(Cc2ccc(Cl)cc2F)CC1` , what is it?
Marked response: 25 to 100 nM

Exam item: And then `CC[C@H]1CN(c2c(Cl)nc(-c3nnc(N)o3)c(=O)n2C)CCN1C1CCN(C(=O)c2ccc(Cl)nc2N)CC1` , what is it?
Marked response: < 25 nM

Exam item: And then `CC[C@H]1CN(c2c(Cl)nc(-c3nnc(N)o3)c(=O)n2C)CCN1C1CCN(C(=O)c2ccc(Cl)cc2)CC1` , what is it?
Marked response: 25 to 100 nM

Exam item: And then `CC[C@H]1CN(c2c(Cl)nc(C(N)=O)c(=O)n2C)CCN1C1CCN(Cc2ccc(Cl)cc2F)CC1` , what is it?
Marked response: < 25 nM

Data provenance: patent US7781437B2
